Target: ERK2 (Homo sapiens)
Assay: ERK2 inhibition, spectrophotometric coupled-enzyme assay
Type: biochemical
Conditions: activated ERK2 10 nM, 65 μM ATP, 30° C., pH 7.5; read-out: ERK2 Inhibitory Activity (Ki class)
pKi: −log10 of the molar value.
// values below are reported pKi

compound: CCN(C)C(=O)c1cc(-c2[nH]ncc2-c2cccc(Cl)c2F)c[nH]1 [II-81]
quantity-measured: pKi
result: > 6.00

compound: O=C(NOCc1ccccc1)c1cc(-c2[nH]ncc2-c2ccc(F)c(F)c2)c[nH]1 [II-85]
quantity-measured: pKi
result: > 6.00

compound: O=C(NC(CO)(CO)CO)c1cc(-c2[nH]ncc2-c2cccc(Br)c2)c[nH]1 [II-295]
quantity-measured: pKi
result: < 5.30

In: Entry COc1ccc(-c2cn[nH]c2-c2c[nH]c(C(=O)NOCc3ccccc3)c2)cc1 [II-133] : reported pKi = ?
Out: 5.30 to 6.00

In: Entry O=C(NOCc1ccccc1)c1cc(-c2[nH]ncc2-c2cccc(Cl)c2F)c[nH]1 [II-82] : reported pKi = ?
Out: > 6.00

In: Entry O=C(NOCc1ccccc1)c1cc(-c2[nH]ncc2-c2ccc(F)c(Cl)c2)c[nH]1 [II-77] : reported pKi = ?
Out: > 6.00

In: Entry CCOC(=O)c1cc(-c2[nH]ncc2-c2cccc(N)c2)c[nH]1 [II-9] : reported pKi = ?
Out: < 5.30

In: Entry COc1cccc(-c2cn[nH]c2-c2c[nH]c(C(=O)NCCN(C)C)c2)c1 [II-25] : reported pKi = ?
Out: < 5.30

In: Entry O=C(N[C@@H](CO)Cc1ccc(O)cc1)c1cc(-c2[nH]ncc2-c2cccc(Br)c2)c[nH]1 [II-293] : reported pKi = ?
Out: < 5.30

In: Entry O=C(NCc1ccncc1)c1cc(-c2[nH]ncc2-c2ccc(Cl)c(Cl)c2)c[nH]1 [II-61] : reported pKi = ?
Out: > 6.00

In: Entry COc1cc(OC)c(CNC(=O)c2cc(-c3[nH]ncc3-c3cccc(Br)c3)c[nH]2)c(OC)c1 [II-118] : reported pKi = ?
Out: 5.30 to 6.00

In: Entry CCOC(=O)c1cc(-c2[nH]ncc2-c2ccc(N)cc2)c[nH]1 [II-164] : reported pKi = ?
Out: < 5.30

In: Entry O=C(NCc1ccccc1)c1cc(-c2[nH]ncc2-c2cccc(F)c2)c[nH]1 [II-63] : reported pKi = ?
Out: > 6.00

In: Entry O=C(NC(CCO)c1ccccc1)c1cc(-c2[nH]ncc2-c2cccc(Br)c2)c[nH]1 (stereo not drawn) [II-59] : reported pKi = ?
Out: > 6.00

In: Entry CCN(C)C(=O)c1cc(-c2[nH]ncc2-c2ccc(F)c(Cl)c2)c[nH]1 [II-108] : reported pKi = ?
Out: > 6.00

In: Entry NNC(=O)c1cc(-c2[nH]ncc2-c2cccc([N+](=O)[O-])c2)c[nH]1 [II-137] : reported pKi = ?
Out: 5.30 to 6.00

In: Entry Nc1cc(-c2cn[nH]c2-c2c[nH]c(C(=O)NC(CO)c3ccccc3)c2)cc(I)c1O (stereo not drawn) [II-44] : reported pKi = ?
Out: > 6.00

In: Entry O=C(NCc1ccncc1)c1cc(-c2[nH]ncc2-c2ccc(F)c(F)c2)c[nH]1 [II-88] : reported pKi = ?
Out: > 6.00

----------
Target: UniProt:O14965
// values below are reported IC50

compound: O=C(NOCc1ccccc1)c1cc(-c2[nH]ncc2-c2ccc(Cl)cc2)c[nH]1
result: < 5 µM
--
compound: O=C(NOCc1ccccc1)c1cc(-c2[nH]ncc2-c2cccc(F)c2)c[nH]1
result: < 5 µM
--
compound: O=C(NC(CO)c1ccccc1)c1cc(-c2[nH]ncc2-c2cccc(Br)c2)c[nH]1 (centres unmarked)
result: 5 to 10 µM

In: Entry `COc1ccc(-c2cn[nH]c2-c2c[nH]c(C(=O)N3CCOCC3)c2)cc1OC` : reported IC50 = ?
Out: < 5 µM

In: Entry `O=C(NCc1ccncc1)c1cc(-c2[nH]ncc2-c2cccc(F)c2F)c[nH]1` : reported IC50 = ?
Out: < 5 µM

----------
Target: ERK2 (Homo sapiens, UniProt P28482)
Sequence (P28482 whole entry): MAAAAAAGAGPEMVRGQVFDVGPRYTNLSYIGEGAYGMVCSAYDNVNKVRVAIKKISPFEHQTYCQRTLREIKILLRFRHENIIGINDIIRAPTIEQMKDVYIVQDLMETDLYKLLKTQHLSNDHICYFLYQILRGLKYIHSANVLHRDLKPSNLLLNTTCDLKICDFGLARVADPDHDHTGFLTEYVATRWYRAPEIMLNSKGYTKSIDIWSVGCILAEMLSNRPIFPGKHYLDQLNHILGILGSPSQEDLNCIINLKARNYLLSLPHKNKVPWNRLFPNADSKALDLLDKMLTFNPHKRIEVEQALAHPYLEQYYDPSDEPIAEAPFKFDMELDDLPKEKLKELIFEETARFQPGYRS
Assay: ERK2 inhibition, spectrophotometric coupled-enzyme assay
Format: biochemical
Details: activated ERK2 10 nM, 65 μM ATP, 30° C., pH 7.5; read-out: ERK2 Inhibitory Activity (Ki class)
pKi: −log10 of the molar value.
// values below are reported pKi

In the examples that follow, each entry is paired with its recorded pKi.
compound: CCOC(=O)c1cc(-c2[nH]ncc2-c2cccc(Cl)c2)c[nH]1 [II-151]
result: 5.30 to 6.00

compound: O=C(c1cc(-c2n[nH]cc2-c2cc(Cl)cc(Cl)c2)c[nH]1)N1CCOCC1
result: > 6.00

compound: O=C(c1cc(-c2[nH]ncc2-c2ccccc2)c[nH]1)N1CCCC1
result: > 6.00

compound: COc1ccccc1CNC(=O)c1cc(-c2[nH]ncc2-c2cccc(Br)c2)c[nH]1
result: > 6.00

compound: O=C(NCc1cccnc1)c1cc(-c2[nH]ncc2-c2cccc(Cl)c2F)c[nH]1
result: > 6.00

compound: COc1ccc(OC)c(CNC(=O)c2cc(-c3[nH]ncc3-c3cccc(Br)c3)c[nH]2)c1
result: 5.30 to 6.00

compound: Cc1ccc(N2CCN(C(=O)c3cc(-c4[nH]ncc4-c4cccc(Br)c4)c[nH]3)CC2)cc1
result: 5.30 to 6.00

compound: O=C(NCc1ccncc1)c1cc(-c2[nH]ncc2-c2cccc(Cl)c2F)c[nH]1
result: > 6.00

In: Hi! What's the reported pKi for `O=C(NOCc1ccccc1)c1cc(-c2[nH]ncc2-c2ccc(Cl)c(Cl)c2)c[nH]1` on ERK2 (Homo sapiens, UniProt P28482)?
Out: > 6.00

In: Hi! What's the reported pKi for CCOC(=O)c1cc(-c2[nH]ncc2-c2cccc([N+](=O)[O-])c2)c[nH]1 [II-148] on ERK2 (Homo sapiens, UniProt P28482)?
Out: 5.30 to 6.00

In: Hi! What's the reported pKi for `CCOC(=O)c1cc(-c2[nH]ncc2-c2ccccc2)c[nH]1` on ERK2 (Homo sapiens, UniProt P28482)?
Out: < 5.30

----------
// values below are reported pIC50
Biological target: Aurora2 (Homo sapiens, UniProt O14965)
Sequence (O14965 whole entry): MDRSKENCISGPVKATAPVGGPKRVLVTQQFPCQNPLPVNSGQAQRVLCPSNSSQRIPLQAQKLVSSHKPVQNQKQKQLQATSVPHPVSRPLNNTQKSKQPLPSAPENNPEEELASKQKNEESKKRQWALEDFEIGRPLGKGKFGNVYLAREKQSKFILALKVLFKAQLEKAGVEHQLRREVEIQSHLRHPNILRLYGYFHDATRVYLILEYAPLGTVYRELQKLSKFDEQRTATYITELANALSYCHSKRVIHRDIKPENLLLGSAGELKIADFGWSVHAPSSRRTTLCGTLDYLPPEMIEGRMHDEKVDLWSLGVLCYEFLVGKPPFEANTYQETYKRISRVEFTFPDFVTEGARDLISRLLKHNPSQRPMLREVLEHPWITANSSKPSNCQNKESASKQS
pIC50: −log10 of the molar value.

compound-string: O=C(NCc1ccncc1)c1cc(-c2[nH]ncc2-c2cc(F)ccc2F)c[nH]1
quantity-measured: pIC50
result: 5.00 to 5.30

In: Entry `CCN(C)C(=O)c1cc(-c2[nH]ncc2-c2ccc(F)c(Cl)c2)c[nH]1` : reported pIC50 = ?
Out: 5.00 to 5.30

In: Entry `CCN(C)C(=O)c1cc(-c2[nH]ncc2-c2cc(Cl)cc(Cl)c2)c[nH]1` : reported pIC50 = ?
Out: 5.00 to 5.30

In: Entry `O=C(NCc1ccncc1)c1cc(-c2[nH]ncc2-c2cccc(Cl)c2F)c[nH]1` : reported pIC50 = ?
Out: > 5.30

In: Entry `O=C(NCc1cccnc1)c1cc(-c2[nH]ncc2-c2ccc3c(c2)OCO3)c[nH]1` : reported pIC50 = ?
Out: 5.00 to 5.30

In: Entry `O=C(NCc1cccnc1)c1cc(-c2[nH]ncc2-c2ccc(F)c(Cl)c2)c[nH]1` : reported pIC50 = ?
Out: > 5.30

In: Entry `O=C(NOCc1ccccc1)c1cc(-c2[nH]ncc2-c2cc(F)ccc2F)c[nH]1` : reported pIC50 = ?
Out: > 5.30

In: Entry `O=C(NCc1ccncc1)c1cc(-c2n[nH]cc2-c2cc(Cl)cc(Cl)c2)c[nH]1` : reported pIC50 = ?
Out: > 5.30

In: Entry `O=C(NCc1ccncc1)c1cc(-c2[nH]ncc2-c2ccc(F)c(Cl)c2)c[nH]1` : reported pIC50 = ?
Out: 5.00 to 5.30

----------
// values below are reported pKi
Biological target: ERK2 (Homo sapiens)
Assay: ERK2 inhibition, spectrophotometric coupled-enzyme assay
Assay type: biochemical
Details: activated ERK2 10 nM, 65 μM ATP, 30° C., pH 7.5; read-out: ERK2 Inhibitory Activity (Ki class)
pKi: −log10 of the molar value.

In the examples that follow, each entry is paired with its recorded pKi.
molecule: O=C(NCc1ccc2c(c1)CCO2)c1cc(-c2[nH]ncc2-c2cccc(Br)c2)c[nH]1
pKi: > 6.00

molecule: Cc1ccccc1CNC(=O)c1cc(-c2[nH]ncc2-c2cccc(Br)c2)c[nH]1
pKi: > 6.00

molecule: COc1cccc(-c2cn[nH]c2-c2c[nH]c(C(=O)N3CCOCC3)c2)c1 [II-135]
pKi: 5.30 to 6.00

In: Entry `COc1cccc(-c2cn[nH]c2-c2c[nH]c(C(=O)N(C)C)c2)c1` : reported pKi = ?
Out: > 6.00

In: Entry `CC(C)NC(=O)c1cc(-c2[nH]ncc2-c2cccc(C(=O)O)c2)c[nH]1` : reported pKi = ?
Out: 5.30 to 6.00

In: Entry `Cc1ccc(CNC(=O)c2cc(-c3[nH]ncc3-c3cccc(Br)c3)c[nH]2)o1` : reported pKi = ?
Out: > 6.00

In: Entry `O=C(c1cc(-c2[nH]ncc2-c2cccc(Br)c2)c[nH]1)N1CCc2ccccc2C1` : reported pKi = ?
Out: > 6.00

In: Entry Nc1cccc(-c2cn[nH]c2-c2c[nH]c(C(=O)NCc3ccccc3)c2)c1 [II-73] : reported pKi = ?
Out: > 6.00

In: Entry O=C(NCc1ccccc1)c1cc(-c2[nH]ncc2-c2cccc([N+](=O)[O-])c2)c[nH]1 [II-285] : reported pKi = ?
Out: 5.30 to 6.00

Reference for the values: patent US6593357B1
